Overview of reported pKi across a group of binders:
biological target: T1, pKal catalytic domain Mutant 2 (human, UniProt P03952 391-638, limits assumed); test: Ki,app: enzyme inhibition, fluorescent substrate, 2 h pre-incubation at 30 C, tight-binding fit
T1 construct: domain: catalytic domain; Expressed in Pichia pastoris, purified by IMAC; not shown: His tag fusion
T1 sequence (P03952 other isoform, or with tags, fused parts or gaps mutant limits assumed): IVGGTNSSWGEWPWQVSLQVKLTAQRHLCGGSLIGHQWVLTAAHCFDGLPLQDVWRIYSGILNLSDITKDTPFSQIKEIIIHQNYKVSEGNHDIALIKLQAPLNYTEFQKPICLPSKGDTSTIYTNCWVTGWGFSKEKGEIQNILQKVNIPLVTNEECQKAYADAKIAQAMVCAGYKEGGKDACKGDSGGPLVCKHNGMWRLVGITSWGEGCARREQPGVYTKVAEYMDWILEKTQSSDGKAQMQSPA
pKi: −log10 of the molar value.
Measurement type: pKi

- M06-D09 (antibody, V domains shown, Only variable domains printed; also called M6-D09; 559A-M06-D09) VH: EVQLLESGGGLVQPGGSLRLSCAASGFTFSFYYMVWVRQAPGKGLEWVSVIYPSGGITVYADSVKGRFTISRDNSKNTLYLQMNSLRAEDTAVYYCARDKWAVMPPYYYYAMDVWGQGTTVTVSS VL: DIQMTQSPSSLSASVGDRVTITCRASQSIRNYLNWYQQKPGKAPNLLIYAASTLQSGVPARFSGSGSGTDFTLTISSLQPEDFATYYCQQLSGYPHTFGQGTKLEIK: 7.87
- DX-2922 (antibody, V domains shown, Germlined IgG produced in CHO cells; only the variable domains are printed; also called X101-A01; 559A-X0101-A01) VH: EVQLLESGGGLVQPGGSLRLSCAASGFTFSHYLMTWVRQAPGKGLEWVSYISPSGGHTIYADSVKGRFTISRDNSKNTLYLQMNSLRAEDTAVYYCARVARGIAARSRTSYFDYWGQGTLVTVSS VL: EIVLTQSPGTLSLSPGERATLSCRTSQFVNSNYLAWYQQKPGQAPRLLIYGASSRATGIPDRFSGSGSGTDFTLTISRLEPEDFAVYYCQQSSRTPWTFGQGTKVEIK: 7.70
- M35-G04 (antibody, V domains shown, Only variable domains printed; also called 559A-M35-G04; 559A-M0035-G04) VH: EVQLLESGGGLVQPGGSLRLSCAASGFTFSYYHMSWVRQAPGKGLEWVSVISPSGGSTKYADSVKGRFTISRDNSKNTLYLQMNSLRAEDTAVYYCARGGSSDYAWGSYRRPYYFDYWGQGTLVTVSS VL: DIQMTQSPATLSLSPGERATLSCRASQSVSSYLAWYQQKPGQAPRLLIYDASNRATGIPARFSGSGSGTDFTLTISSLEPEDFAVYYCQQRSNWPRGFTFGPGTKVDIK: 8.96
- X115-D01 (antibody, V domains shown, only variable domains given; also called 559A-X115-D01; 559A-X0115-D01) VH: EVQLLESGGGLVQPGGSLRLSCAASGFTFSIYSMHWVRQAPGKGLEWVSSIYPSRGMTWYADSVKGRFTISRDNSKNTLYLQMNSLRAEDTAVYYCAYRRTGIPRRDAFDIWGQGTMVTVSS VL: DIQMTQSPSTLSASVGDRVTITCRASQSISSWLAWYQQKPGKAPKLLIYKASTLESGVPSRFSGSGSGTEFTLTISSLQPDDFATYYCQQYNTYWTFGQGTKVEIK: 8.60
- X115-A03 (antibody, V domains shown, only variable domains given; also called 559A-X115-A03; 559A-X0115-A03) VH: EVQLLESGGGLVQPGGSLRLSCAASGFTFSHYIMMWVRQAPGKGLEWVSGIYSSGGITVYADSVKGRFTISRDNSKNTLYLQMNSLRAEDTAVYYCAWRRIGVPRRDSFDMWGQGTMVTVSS VL: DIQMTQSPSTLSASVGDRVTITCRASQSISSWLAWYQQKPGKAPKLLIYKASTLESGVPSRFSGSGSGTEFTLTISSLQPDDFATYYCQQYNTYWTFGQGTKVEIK: 8.43
